target-or-system: GalNAc-T4 (Homo sapiens, UniProt Q8N4A0)
Construct: made in house; host or cells: High Five insect cells (baculovirus, pAcGP67 vector)
Sequence (Q8N4A0 32-578 limits assumed): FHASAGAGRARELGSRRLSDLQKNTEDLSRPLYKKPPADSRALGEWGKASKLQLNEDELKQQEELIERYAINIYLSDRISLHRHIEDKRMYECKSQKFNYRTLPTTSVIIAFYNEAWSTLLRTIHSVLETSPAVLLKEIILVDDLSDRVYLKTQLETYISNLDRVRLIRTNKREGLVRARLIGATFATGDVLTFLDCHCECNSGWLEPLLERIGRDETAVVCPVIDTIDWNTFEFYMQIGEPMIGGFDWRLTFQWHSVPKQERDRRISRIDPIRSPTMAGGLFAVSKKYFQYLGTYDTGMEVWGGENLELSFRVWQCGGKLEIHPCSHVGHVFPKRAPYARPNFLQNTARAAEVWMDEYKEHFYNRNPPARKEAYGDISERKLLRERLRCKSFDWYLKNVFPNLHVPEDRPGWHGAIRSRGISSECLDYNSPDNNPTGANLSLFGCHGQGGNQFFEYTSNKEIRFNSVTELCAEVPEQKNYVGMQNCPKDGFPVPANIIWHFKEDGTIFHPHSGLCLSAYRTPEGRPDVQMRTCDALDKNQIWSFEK
assay-notes: GalNAc-transferase assay with purified recombinant GalNAc-T4
Assay type: biochemical
applied-conditions: 0.25 mM peptide in 50-μl assay
Each entry below carries its reported GalNAc-T4 activity with acceptor peptide.
measurement-kind: GalNAc-T4 activity with acceptor peptide (milliunits/mg)

> print(dat)
                                        seq    output.unit  numeric.value
1  RPAPGSTAPPA [Muc1b′, peptide derived from the tandem repeat of human MUC1]  milliunits/mg            0.7
2  PTTTPISTTTMVTPTPTPTC [Muc2, peptide from the tandem repeats of MUC2]  milliunits/mg             29
3  AHGVTSAPDTR [Muc1a′, peptide derived from the tandem repeat of human MUC1]  milliunits/mg              2
4  DSTTPAPTTK [EA2, mucin derived substrate]  milliunits/mg             42

---

target-or-system: T1, GalNAc-T2 (Homo sapiens, UniProt Q10471)
T1 construct: Control constructs pAcGP67-GalNAc-T1-sol, pAcGP67-GalNAc-T2-sol, pAcGP67-GalNAc-T3-sol, and pAcGP67-O^2-sol were prepared as previously described; made in house; host or cells: insect cells (baculovirus, pAcGP67)
T1 sequence (Q10471 52-571 limits assumed): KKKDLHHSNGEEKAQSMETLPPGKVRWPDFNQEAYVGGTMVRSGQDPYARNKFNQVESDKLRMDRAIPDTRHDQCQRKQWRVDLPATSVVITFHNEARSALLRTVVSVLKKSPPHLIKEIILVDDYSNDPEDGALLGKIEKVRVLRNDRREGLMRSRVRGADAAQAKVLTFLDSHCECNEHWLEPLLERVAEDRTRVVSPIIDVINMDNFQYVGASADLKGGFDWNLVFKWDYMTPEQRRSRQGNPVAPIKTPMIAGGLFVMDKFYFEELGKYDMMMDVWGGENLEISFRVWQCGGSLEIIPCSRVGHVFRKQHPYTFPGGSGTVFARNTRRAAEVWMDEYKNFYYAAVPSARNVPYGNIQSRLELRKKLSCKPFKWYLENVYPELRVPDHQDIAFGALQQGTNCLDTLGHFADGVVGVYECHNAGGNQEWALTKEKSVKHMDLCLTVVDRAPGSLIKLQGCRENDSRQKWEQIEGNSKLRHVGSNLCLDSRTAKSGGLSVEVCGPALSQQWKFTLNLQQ
assay-notes: GalNAc-transferase assay with purified recombinant GalNAc-T2
Assay type: biochemical
applied-conditions: 0.06 mM peptide in 50-μl assay
measurement-kind: GalNAc-T2 activity with acceptor peptide

> print(dat)
                                        seq                  result
1          PRFQDSSSSKAPPPSLPSPSRLPG [hCG-β]  22 ± 0.5 milliunits/mg
2  PTTTPISTTTMVTPTPTPTC [Muc2, peptide from the tandem repeats of MUC2]   169 ± 2 milliunits/mg
3                QATEYEYLDYDFLPEC [PSGL-1a]       0.0 milliunits/mg
4  DSTTPAPTTK [EA2, mucin derived substrate]   152 ± 3 milliunits/mg

---

target-or-system: T1, GalNAc-T2 (Homo sapiens, UniProt Q10471)
T1 construct: Control constructs pAcGP67-GalNAc-T1-sol, pAcGP67-GalNAc-T2-sol, pAcGP67-GalNAc-T3-sol, and pAcGP67-O^2-sol were prepared as previously described; made in house; host or cells: insect cells (baculovirus, pAcGP67)
assay-notes: GalNAc-transferase assay with purified recombinant GalNAc-T2
Type: biochemical
applied-conditions: 0.25 mM peptide in 50-μl assay
Please respond with yes (1) when measured GalNAc-T2 activity with acceptor peptide is strictly beneath 70 milliunits/mg, and with no (0) in all other cases.

> print(dat)
                                        seq    label
1          PRFQDSSSSKAPPPSLPSPSRLPG [hCG-β]   no (0)
2  DSTTPAPTTK [EA2, mucin derived substrate]   no (0)
3  RPAPGSTAPPA [Muc1b′, peptide derived from the tandem repeat of human MUC1]   no (0)
4  PTTTPISTTTMVTPTPTPTC [Muc2, peptide from the tandem repeats of MUC2]   no (0)
5                QATEYEYLDYDFLPEC [PSGL-1a]  yes (1)
6  AHGVTSAPDTR [Muc1a′, peptide derived from the tandem repeat of human MUC1]  yes (1)
